Target: Caspase-1 (Homo sapiens) (UniProt P29466)
Assay: qHTS Assay for Allosteric/Competitive Inhibitors of Caspase-1;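 also: plate controls were vehicle for no effect and no substrate for full effect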
Conditions: Caspase-1 enzyme, Ac-WEHD-AFC fluorogenic rate; series mostly up to 57.5 µM
Description: NIH Molecular Libraries Screening Centers Network [MLSCN] NIH Chemical Genomics Center [NCGC] PI Name: Dr. James Wells, Dr. Enrique Perez-Paya, Dr.Janice Williams, Dr. Dennis Wolan, a person […] Concentration-response curves were fitted to the data calculated from slope of the linear regression of fluorescent intensity versus time (the rate). The concentration-effect curves were then classified based on curve quality (r2), response magnitude and degree of measured activity. […]
In all, about 75,000 compounds went through this assay and about 20 (0.03%) were called active. Another 1% or so got no clear call; they are omitted. These entries were drawn from the full list.
PARAMETER_MEASURED: activity change, negative = inhibition

{"COMPOUND": "C[C@@H](c1ccccc1)N1C(=O)[C@H]2[C@H]3[C@H](O)[C@H](O)C/C(=N/OC[C@@H](O)COCc4ccco4)[C@@H]3CC[C@@H]2C1=O", "VALUE_OBSERVED": "-0.613% [at 11.5 µM] (inactive)"}
{"COMPOUND": "COc1ccc(COC(=O)N/N=C2/C[C@@H](O)[C@@H](O)[C@@H]3[C@@H]4C(=O)N([C@@H](C)c5ccccc5)C(=O)[C@H]4CC[C@@H]23)cc1", "VALUE_OBSERVED": "-3.18% [at 11.5 µM] (inactive)"}
{"COMPOUND": "CCCn1c(-c2ccc(F)cc2)nc2c(NC3CCN(Cc4ccccc4)C3)nc(C)nc21 (configuration not stated)", "VALUE_OBSERVED": "inactive"}
{"COMPOUND": "COC(=O)[C@@H]1C[C@@]2(O)[C@H](O)[C@H](O)[C@H](O)C[C@H]2N1CC1CCCCC1", "VALUE_OBSERVED": "inactive"}
{"COMPOUND": "C=C1C([C@@]2(C)C(OC(C)=O)CC(=O)O[C@@](C)(COC(C)=O)C2CC(=O)OC)C(OC=O)C(OC(=O)C(O)C(C)CC)[C@]2(C)C(c3ccoc3)CC(=O)C12O (some centres not stated)", "VALUE_OBSERVED": "inactive"}
{"COMPOUND": "O=C(O)c1ccc(Cl)c(S(=O)(=O)Nc2ccccc2Cl)c1", "VALUE_OBSERVED": "inactive"}
{"COMPOUND": "CCC(CCC(C)C1CCC2C3CC=C4CC(O)CC[C@@]4(C)C3CC[C@@]12C)C(C)C (some centres not stated)", "VALUE_OBSERVED": "inactive"}
